MEASURED TARGET: human CRTH2 (Homo sapiens)
Construct: expressed in transfected cells; host or cells: CHO-K1
Sequence (Q9Y5Y4 1-395): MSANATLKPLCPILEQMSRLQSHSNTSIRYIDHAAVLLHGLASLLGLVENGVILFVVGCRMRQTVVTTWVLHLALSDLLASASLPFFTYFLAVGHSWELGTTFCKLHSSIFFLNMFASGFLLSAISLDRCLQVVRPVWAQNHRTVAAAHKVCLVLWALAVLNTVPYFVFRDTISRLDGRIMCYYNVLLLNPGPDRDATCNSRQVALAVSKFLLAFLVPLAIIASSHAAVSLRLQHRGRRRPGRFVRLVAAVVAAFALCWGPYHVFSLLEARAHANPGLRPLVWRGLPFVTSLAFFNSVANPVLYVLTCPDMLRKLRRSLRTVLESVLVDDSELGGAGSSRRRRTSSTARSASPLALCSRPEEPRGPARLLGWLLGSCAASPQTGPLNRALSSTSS
MEASUREMENT PROTOCOL: Human CRTH2 Receptor Binding Assay (whole cell, [3H]ramatroban competition)
CONDITION DESCRIPTION: CHO-K1 cells expressing human CRTH2 and G-alpha16; 20 nM [3H]ramatroban; 1 hour, room temperature
READOUT TYPE: IC50 (nM)

What does the data say about its IC50? Entry: Cc1cc(S(C)(=O)=O)ccc1Oc1cc(CC(=O)O)cc2ccc(F)cc12
7.1

Cc1c(CC(=O)O)cc2ccc(F)cc2c1Oc1cc(F)c(S(C)(=O)=O)cc1F , same question.
2.6

Cc1c(CC(=O)O)cc2ccc(F)cc2c1Oc1ccc(S(C)(=O)=O)c(F)c1 , same question.
3.4

[I] Cc1cc(S(C)(=O)=O)ccc1Oc1c(C)c(CC(=O)O)cc2ccc(F)cc12
[II] CCS(=O)(=O)c1ccc(Oc2cc(CC(=O)O)cc3cc(OC)c(OC)cc23)cc1
Between I and II , which one shows the larger IC50 value? API: response body contains the label of the selected item.
II
(II: 97.3 nM, I: 7.5 nM)

[A] Cc1ccc(S(=O)(=O)c2ccc(Oc3c(C)c(CC(=O)O)cc4ccc(F)cc34)cc2)cc1
[B] C=Cc1c(CC(=O)O)cc2ccc(F)cc2c1Oc1ccc(S(=O)(=O)CC)cn1
Between A and B , which one shows the larger IC50 value? API: response body contains the label of the selected item.
B
(B: 12.4 nM, A: 2.8 nM)

[I] CCS(=O)(=O)c1ccc(Oc2c(C)c(CC(=O)O)cc3ccc(F)cc23)c(F)c1
[II] CCc1c(CC(=O)O)cc2ccc(F)cc2c1Oc1ccc(S(=O)(=O)CC)cn1
Of the pair I and II , name the member with the lesser recorded IC50. API: response body contains the label of the selected item.
I
(I: 2.4 nM, II: 17.5 nM)

====

MEASURED TARGET: human CRTH2 (Homo sapiens)
Construct: expressed in transfected cells; host or cells: CHO-K1
MEASUREMENT PROTOCOL: Human CRTH2 Receptor Binding Assay (whole cell, [3H]ramatroban competition)
CONDITION DESCRIPTION: CHO-K1 cells expressing human CRTH2 and G-alpha16; 20 nM [3H]ramatroban; 1 hour, room temperature
pIC50: −log10 of the molar value.
READOUT TYPE: pIC50

What does the data say about its pIC50? Entry: CCS(=O)(=O)c1ccc(Oc2cc(CC(=O)O)cc3ccc(OC(F)(F)F)cc23)cc1 [Example 1-19]
8.59

[I] CCS(=O)(=O)c1ccc(Oc2cc(CC(=O)O)cc3ccc(C(F)(F)F)cc23)nc1 [Example 1-16]
[II] Cc1c(CC(=O)O)cc2ccc(F)cc2c1Oc1ccc(C#N)cc1 [Example 2-44]
[III] CCS(=O)(=O)c1ccc(Oc2cc(CC(=O)O)cc3ccc(C)cc23)nc1 [Example 13-1]
[IV] CCS(=O)(=O)c1ccc(Oc2cc(CC(=O)O)cc3ccc(OC)cc23)nc1 [Example 1-21]
[V] Cc1c(CC(=O)O)cc2ccc(F)cc2c1Oc1ccc(S(C)(=O)=O)cn1 [Example 2-32]
Highest pIC50 first, then in falling order down to the smallest. The response must list the labels following the requested ordering.
V, IV, II, I, III
(V: 9.05, IV: 8.33, II: 8.00, I: 7.72, III: 7.13)

[P] Cc1c(CC(=O)O)cc2ccccc2c1Oc1ccc(S(C)(=O)=O)cc1 [Example 3-2]
[Q] CCS(=O)(=O)c1cc(Cl)c(Oc2c(C)c(CC(=O)O)cc3ccc(F)cc23)cc1F [Example 2-25]
Of the pair P and Q , name the member with the lesser recorded pIC50. API: response body contains the label of the selected item.
P
(P: 8.33, Q: 8.62)

[1] Cc1c(CC(=O)O)cc2ccc(F)cc2c1Oc1ccc(S(=O)(=O)N2CC3(COC3)C2)cc1 [Example 2-43]
[2] CCS(=O)(=O)c1ccc(Oc2c(C)c(CC(=O)O)cc3ccc(F)cc23)c(C)c1 [Example 2-10]
[3] CS(=O)(=O)c1ccc(Nc2cc(CC(=O)O)cc3ccc(F)cc23)cc1 [Example 8-1]
Highest pIC50 first, then in falling order down to the smallest. The response must list the labels following the requested ordering.
1, 3, 2
(1: 8.74, 3: 8.48, 2: 8.14)

[1] Cc1c(CC(=O)O)cc2ccc(F)cc2c1Oc1ccc(S(=O)(=O)N(C)C)cc1 [Example 2-37]
[2] CCS(=O)(=O)c1ccc(Oc2c(C3CC3)c(CC(=O)O)cc3ccc(F)cc23)nc1 [Example 18-1]
Of the pair 1 and 2 , name the member with the lesser recorded pIC50. API: response body contains the label of the selected item.
2

====

MEASURED TARGET: human CRTH2 (Homo sapiens, UniProt Q9Y5Y4)
Construct: expressed in transfected cells; host or cells: CHO-K1
MEASUREMENT PROTOCOL: Human CRTH2 Receptor Binding Assay (whole cell, [3H]ramatroban competition)
CONDITION DESCRIPTION: CHO-K1 cells expressing human CRTH2 and G-alpha16; 20 nM [3H]ramatroban; 1 hour, room temperature
READOUT TYPE: IC50 (nM)

What does the data say about its IC50? Entry: CCS(=O)(=O)c1ccc(Oc2c(C)c(CC(=O)O)cc3ccc(F)cc23)cc1
3.2

CCS(=O)(=O)c1ccc(Oc2cc(CC(=O)O)cc3ccc(Br)cc23)nc1 , same question.
5.3

[1] CCS(=O)(=O)c1ccc(Oc2cc(CC(=O)O)cc3ccc(OC)cc23)cc1
[2] CS(=O)(=O)c1ccc(S(=O)(=O)c2cc(CC(=O)O)cc3ccc(F)cc23)cc1
Between 1 and 2 , which one shows the larger IC50 value? API: response body contains the label of the selected item.
2

====

MEASURED TARGET: human CRTH2 (Homo sapiens, UniProt Q9Y5Y4)
Construct: expressed in transfected cells; host or cells: CHO-K1
MEASUREMENT PROTOCOL: Calcium Flux Assay Using Fluorometric Imaging Plate Reader (FLIPR)
Type: cell-based
CONDITION DESCRIPTION: CHO-K1 cells transfected with G-alpha 16 and human CRTH2; inhibition of ligand (DK-PGD2) response
pIC50: −log10 of the molar value.
READOUT TYPE: pIC50

What does the data say about its pIC50? Entry: CCS(=O)(=O)c1ccc(Oc2c(C)c(CCC(=O)O)cc3ccc(F)cc23)cc1
5.38

CCS(=O)(=O)c1ccc(Oc2cc(CC(=O)O)cc3ccc(F)cc23)cc1 , same question.
5.30

====

MEASURED TARGET: human CRTH2 (Homo sapiens)
Construct: expressed in transfected cells; host or cells: CHO-K1
MEASUREMENT PROTOCOL: Human CRTH2 Receptor Binding Assay (whole cell, [3H]ramatroban competition)
CONDITION DESCRIPTION: CHO-K1 cells expressing human CRTH2 and G-alpha16; 20 nM [3H]ramatroban; 1 hour, room temperature
pIC50: −log10 of the molar value.
READOUT TYPE: pIC50

Look over these answered cases.
What does the data say about its pIC50? Entry: Cc1c(CC(=O)O)cc2ccc(F)cc2c1Oc1ncc(S(C)(=O)=O)cc1Br
10.70

Cc1cc(S(C)(=O)=O)cnc1Oc1c(C)c(CC(=O)O)cc2ccc(F)cc12 , same question.
8.51

CS(=O)(=O)c1ccc([S+]([O-])c2cc(CC(=O)O)cc3ccc(F)cc23)cc1 (stereo not drawn) , same question.
7.99

CCN(CC)S(=O)(=O)c1ccc(Oc2c(C)c(CC(=O)O)cc3ccc(F)cc23)cc1 , same question.
8.70

CCS(=O)(=O)c1ccc(Oc2cc(CC(=O)O)cc3ccc(OC(F)(F)F)cc23)nc1 , same question.
8.59

CCS(=O)(=O)c1ccc(Oc2c(C)c(CC(=O)O)cc3ccc(F)cc23)cc1Cl , same question.
7.91

[1] Cc1c(CC(=O)O)cc2ccc(F)cc2c1Oc1ccc(S(=O)(=O)C(C)C)cc1
[2] CC(C)S(=O)(=O)c1ccc(Oc2cc(CC(=O)O)cc3ccc(F)cc23)cc1
[3] CCS(=O)(=O)c1ccc(Oc2cc(CC(=O)O)cc3cc(F)ccc23)cc1
List the 3 entries from lowest pIC50 to highest pIC50 value. The response must list the labels following the requested ordering.
3, 2, 1

[P] CCCS(=O)(=O)c1ccc(Oc2c(C)c(CC(=O)O)cc3ccc(F)cc23)cc1
[Q] Cc1c(CC(=O)O)cc2ccc(F)cc2c1Oc1ccc(S(=O)(=O)c2ccccc2)cc1
Between P and Q , which one shows the larger pIC50 value? API: response body contains the label of the selected item.
P

[a] CCS(=O)(=O)c1ccc(Oc2cc(CC(=O)O)cc3cccc(F)c23)cc1
[b] CCS(=O)(=O)c1ccc(Oc2cc(CC(=O)O)cc3ccc(S(C)(=O)=O)cc23)cc1
Between a and b , which one shows the larger pIC50 value? API: response body contains the label of the selected item.
a
(a: 8.27, b: 7.04)

[I] CCS(=O)(=O)c1cnc(Oc2cc(CC(=O)O)cc3ccc(F)cc23)c(C)c1
[II] CS(=O)(=O)c1ccc(Oc2cc(CC(=O)O)cc3ccccc23)cc1
[III] CCS(=O)(=O)c1ccc(Oc2c(C)c(C(C)C(=O)O)cc3ccc(F)cc23)nc1 (stereo not drawn)
[IV] Cc1cc(Oc2c(C)c(CC(=O)O)cc3ccc(Cl)cc23)ccc1S(C)(=O)=O
[V] CS(=O)(=O)c1ccc(Oc2cc(CC(=O)O)c(F)c3ccc(F)cc23)nc1
Highest pIC50 first, then in falling order down to the smallest. The response must list the labels following the requested ordering.
I, IV, V, II, III
(I: 8.60, IV: 8.35, V: 8.10, II: 7.89, III: 6.42)

[1] Cc1c(CC(=O)O)cc2ccc(F)cc2c1Oc1ccc(S(C)(=O)=O)c(Cl)c1
[2] Cc1c(CC(=O)O)cc2ccc(F)cc2c1Oc1ccc(S(=O)(=O)N2CCN(C)CC2)cc1
Between 1 and 2 , which one shows the larger pIC50 value? API: response body contains the label of the selected item.
2

[a] Cc1c(CC(=O)O)cc2ccc(F)cc2c1Oc1ccc(S(=O)(=O)N2CCCC2)cc1
[b] O=C(O)Cc1cc(Oc2ccc(S(=O)(=O)C3CC3)cc2)c2cc(F)ccc2c1
Between a and b , which one shows the larger pIC50 value? API: response body contains the label of the selected item.
a
(a: 8.66, b: 8.03)

[A] CCS(=O)(=O)c1ccc(Oc2c(C)c(CC(=O)O)cc3ccc(F)cc23)c(C#N)c1
[B] CCS(=O)(=O)c1ccc(Oc2cc(CC(=O)O)cc3ccc(Br)cc23)cc1
Of the pair A and B , name the member with the lesser recorded pIC50. API: response body contains the label of the selected item.
B
(B: 8.27, A: 8.77)

[a] CCS(=O)(=O)c1cnc(Oc2cc(CC(=O)O)cc3ccc(F)cc23)c(Br)c1
[b] Cc1c(CC(=O)O)cc2ccc(F)cc2c1Oc1ccc(S(=O)(=O)c2ccc(Cl)cc2)cc1
[c] CS(=O)(=O)c1ccc(Sc2cc(CC(=O)O)cc3ccc(F)cc23)cc1
[d] CCS(=O)(=O)c1ccc(Oc2cc(CC(=O)O)c(C)c3ccc(F)cc23)nc1
Highest pIC50 first, then in falling order down to the smallest. The response must list the labels following the requested ordering.
a, b, c, d
(a: 8.64, b: 8.44, c: 8.12, d: 7.49)

Just for reference, patent US8642629B2 is where these values come from.
